molecular target: c-Raf (Homo sapiens, UniProt P04049); assay: Luciferase-coupled chemiluminescence kinase assay (ATP consumption), c-Raf; assay type: biochemical; conditions: read-out: cRaf-1 IC50
Sequence (P04049 whole entry): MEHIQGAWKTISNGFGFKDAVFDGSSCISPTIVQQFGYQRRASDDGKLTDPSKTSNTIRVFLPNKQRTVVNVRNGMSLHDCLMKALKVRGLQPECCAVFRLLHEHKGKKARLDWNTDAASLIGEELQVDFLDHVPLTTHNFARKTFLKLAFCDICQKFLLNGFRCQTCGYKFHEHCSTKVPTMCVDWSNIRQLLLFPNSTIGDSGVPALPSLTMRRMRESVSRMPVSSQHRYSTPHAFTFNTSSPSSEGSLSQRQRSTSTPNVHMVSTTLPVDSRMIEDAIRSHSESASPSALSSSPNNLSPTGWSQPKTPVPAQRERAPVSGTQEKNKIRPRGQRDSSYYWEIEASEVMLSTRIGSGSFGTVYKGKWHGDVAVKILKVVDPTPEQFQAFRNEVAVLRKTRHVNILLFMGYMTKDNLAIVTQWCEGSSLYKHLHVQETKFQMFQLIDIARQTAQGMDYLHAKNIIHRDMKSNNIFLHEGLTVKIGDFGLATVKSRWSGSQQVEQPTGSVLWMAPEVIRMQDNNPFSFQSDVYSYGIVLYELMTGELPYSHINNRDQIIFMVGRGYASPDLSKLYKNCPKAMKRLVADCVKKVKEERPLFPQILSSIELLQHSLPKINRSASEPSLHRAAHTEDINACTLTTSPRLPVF
pIC50: −log10 of the molar value.

COMPOUND: COCC(C)(C)COC(=O)Nc1nc2cc(C3(O)c4ccccc4C(=O)N3Cc3ccccc3)ccc2[nH]1 (stereo not shown)
pIC50: 6.00 to 7.00
--
COMPOUND: COC(=O)Nc1nc2ccc(C3(O)c4ccccc4C(=O)N3c3cc(N)cc(Cl)c3)cc2[nH]1 (stereo not shown)
pIC50: > 7.00
--
COMPOUND: O=C(CCCN1CCCCC1)Nc1nc2cc(C3(O)c4ccccc4C(=O)N3Cc3ccccc3)ccc2[nH]1 (stereo not shown)
pIC50: > 7.00
--
COMPOUND: COC(C)CCOC(=O)Nc1nc2cc(C3(O)c4ccccc4C(=O)N3Cc3ccccc3)ccc2[nH]1 (stereo not shown)
pIC50: > 7.00
--
COMPOUND: CC(C)(C)n1c(N)nc2cc(C3(O)c4ccccc4C(=O)N3Cc3ccccc3)ccc21 (stereo not shown)
pIC50: ≤ 5.00
--
COMPOUND: NC(=O)c1cccc(N2C(=O)c3ccccc3C2(O)c2ccc3c(c2)NC(=O)CO3)c1 (stereo not shown)
pIC50: 5.00 to 6.00
--
COMPOUND: CCNC(=O)Nc1nc2cc(C3(O)c4ccccc4C(=O)N3[C@H](C)c3ccccc3)ccc2[nH]1 (stereo partly shown)
pIC50: > 7.00
--
COMPOUND: O=C(Nc1nc2cc(C3(O)c4ccccc4C(=O)N3Cc3ccccc3)ccc2[nH]1)N1CCCCC1 (stereo not shown)
pIC50: 6.00 to 7.00
--
COMPOUND: COC(=O)Nc1nc2cc(C3(O)c4ccccc4C(=O)N3c3cccc(C(C)C)c3)ccc2[nH]1 (stereo not shown)
pIC50: > 7.00
--
COMPOUND: COC(=O)Nc1nc2cc(C3(O)c4ccccc4C(=O)N3c3cccc(C)c3)ccc2[nH]1 (stereo not shown)
pIC50: > 7.00
--
COMPOUND: COC(=O)Nc1nc2cc(C3(O)c4ccccc4C(=O)N3c3ccc(OC)cc3)ccc2[nH]1 (stereo not shown)
pIC50: 5.00 to 6.00
--
COMPOUND: COC(=O)Nc1nc2cc(C3(O)c4ccccc4C(=O)N3C(C)c3ccc(Cl)s3)ccc2[nH]1 (stereo not shown)
pIC50: > 7.00
--
COMPOUND: O=C(Nc1nc2cc(C3(O)c4ccccc4C(=O)N3Cc3ccccc3)ccc2[nH]1)OCC1CCCO1 (stereo not shown)
pIC50: > 7.00
--
COMPOUND: O=C(CC(O)(C(F)(F)F)C(F)(F)F)Nc1nc2cc(C3(O)c4ccccc4C(=O)N3Cc3ccccc3)ccc2[nH]1 (stereo not shown)
pIC50: 5.00 to 6.00
--
COMPOUND: COC(=O)Nc1nc2cc(C3(O)c4ccccc4C(=O)N3c3cc(Cl)ccc3F)ccc2[nH]1 (stereo not shown)
pIC50: > 7.00
--
COMPOUND: O=C1COc2ccc(C(=O)c3ccccc3-c3nc4ccccc4[nH]3)cc2N1
pIC50: ≤ 5.00

----------
target: B-Raf (Homo sapiens, UniProt P15056); assay: Luciferase-coupled chemiluminescence kinase assay (ATP consumption), B-Raf; assay type: biochemical; settings: read-out: bRaf IC50
Sequence (P15056 whole entry): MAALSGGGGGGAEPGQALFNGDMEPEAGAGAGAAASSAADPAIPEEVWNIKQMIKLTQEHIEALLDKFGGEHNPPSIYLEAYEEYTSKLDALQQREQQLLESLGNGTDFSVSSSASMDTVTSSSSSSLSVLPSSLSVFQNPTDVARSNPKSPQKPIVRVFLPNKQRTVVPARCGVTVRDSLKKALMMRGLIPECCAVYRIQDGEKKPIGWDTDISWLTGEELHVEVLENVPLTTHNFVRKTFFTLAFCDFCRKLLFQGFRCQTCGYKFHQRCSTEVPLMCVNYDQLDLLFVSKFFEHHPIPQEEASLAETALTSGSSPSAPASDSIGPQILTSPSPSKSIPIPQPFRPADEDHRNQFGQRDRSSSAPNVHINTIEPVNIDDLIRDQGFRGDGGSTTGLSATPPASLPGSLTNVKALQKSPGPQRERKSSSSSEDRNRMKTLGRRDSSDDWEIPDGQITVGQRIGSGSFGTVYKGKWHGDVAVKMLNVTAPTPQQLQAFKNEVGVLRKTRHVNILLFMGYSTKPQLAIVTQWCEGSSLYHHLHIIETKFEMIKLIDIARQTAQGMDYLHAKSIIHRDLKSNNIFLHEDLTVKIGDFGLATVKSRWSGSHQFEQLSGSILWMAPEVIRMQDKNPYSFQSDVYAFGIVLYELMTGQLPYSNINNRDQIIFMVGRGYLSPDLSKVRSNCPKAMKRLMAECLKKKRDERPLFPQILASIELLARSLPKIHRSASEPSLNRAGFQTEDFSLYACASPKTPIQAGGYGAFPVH
pIC50: −log10 of the molar value.
READOUT TYPE: pIC50

MOLECULE: COCCOc1cccc(N2C(=O)c3ccccc3C2(O)c2ccc3[nH]c(NC(=O)OC)nc3c2)c1 (stereo not shown) [Entry 211]
RESULT: 5.00 to 6.00

MOLECULE: COC(=O)Nc1nc2cc(C3(O)c4ccccc4C(=O)N3c3cccc(N)c3)ccc2[nH]1 (stereo not shown) [Entry 261]
RESULT: > 7.00

MOLECULE: COC(=O)Nc1nc2cc(C3(O)c4ccccc4C(=O)N3c3cccc(N(C)c4ccccc4)c3)ccc2[nH]1 (stereo not shown) [Entry 267]
RESULT: > 7.00

MOLECULE: O=C1COc2ccc(C3(O)c4ccccc4C(=O)N3Cc3cc(Br)ccc3F)cc2N1 (stereo not shown) [Entry 51]
RESULT: 5.00 to 6.00

MOLECULE: CNc1nc2cc(C3(O)c4ccccc4C(=O)N3Cc3ccccc3)ccc2[nH]1 (stereo not shown) [Entry 84]
RESULT: 5.00 to 6.00

MOLECULE: C=Cc1cccc(N2C(=O)c3ccccc3C2(O)c2ccc3[nH]c(NC(=O)OC)nc3c2)c1 (stereo not shown) [Entry 257]
RESULT: > 7.00

MOLECULE: COC(=O)Nc1nc2ccc(C3(O)c4ccccc4C(=O)N3Cc3ccccc3)cc2n1C (stereo not shown) [Entry 107]
RESULT: ≤ 5.00

MOLECULE: COC(=O)Nc1nc2cc(C3(O)c4ccccc4C(=O)N3c3cc(C)cc(C)c3)ccc2[nH]1 (stereo not shown) [Entry 141]
RESULT: > 7.00

MOLECULE: COC(=O)Nc1nc2cc(C3(O)c4ccccc4C(=O)N3c3ccc(C)cc3)ccc2[nH]1 (stereo not shown) [Entry 146]
RESULT: 6.00 to 7.00

MOLECULE: CSc1ccccc1CN1C(=O)c2ccccc2C1(O)c1ccc2c(c1)NC(=O)CO2 (stereo not shown) [Entry 57]
RESULT: ≤ 5.00

MOLECULE: COC(=O)Nc1nc2cc(C3(O)c4ccccc4C(=O)N3c3ccc(Cl)cc3)ccc2[nH]1 (stereo not shown) [Entry 139]
RESULT: > 7.00

MOLECULE: COC(=O)Nc1nc2ccc(C3(C)c4ccccc4C(=O)N3c3cccc(C(F)(F)F)c3)cc2[nH]1 (stereo not shown) [Entry 254]
RESULT: > 7.00

MOLECULE: COC(=O)Nc1nc2cc(C3(O)c4ccccc4C(=O)N3C(C)c3cccc(F)c3)ccc2[nH]1 (stereo not shown) [Entry 166]
RESULT: > 7.00

MOLECULE: O=C1COc2ccc(C3(O)c4ccccc4C(=O)N3c3cccc(CO)c3)cc2N1 (stereo not shown) [Entry 82]
RESULT: 5.00 to 6.00

MOLECULE: COC(=O)Nc1nc2cc(C3(O)c4ccccc4C(=O)N3Cc3ccco3)ccc2[nH]1 (stereo not shown) [Entry 205]
RESULT: > 7.00

MOLECULE: O=C(Nc1nc2cc(C3(O)c4ccccc4C(=O)N3Cc3ccccc3)ccc2[nH]1)OCC1CCOC1 (stereo not shown) [Entry 212]
RESULT: > 7.00
